- Study target: KRas G12C (Homo sapiens, UniProt P01116, G12C)
- Construct: NCI-H358 cells (ATCC CRL-5807) express KRas G12C
- Sequence (P01116 1-188 isoform P01116-2 G12C): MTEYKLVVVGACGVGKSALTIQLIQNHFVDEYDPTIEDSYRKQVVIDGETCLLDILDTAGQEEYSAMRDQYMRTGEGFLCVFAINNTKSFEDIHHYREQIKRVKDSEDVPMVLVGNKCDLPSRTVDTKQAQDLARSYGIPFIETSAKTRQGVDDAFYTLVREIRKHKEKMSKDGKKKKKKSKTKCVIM
- Assay info: Inhibition of KRas G12C-dependent cell growth: Phospho-ERK in NCI-H358 cells
- Assay context: NCI-H358 cells expressing KRas G12C; Phospho-ERK (Thr202/Tyr204) normalized to GAPDH; 3 hours compound; 4 parameter fit
pIC50: −log10 of the molar value.
Measured endpoint: pIC50

Here's what some known entries look like.
# Compound, pIC50
measured = [
    ("C#Cc1cccc2cccc(-c3ncc4c(N5CCN(C(=O)C(=C)F)[C@@H](CC#N)C5)nc(OC[C@@H]5CCCN5C)nc4c3F)c12 [Example 212]", 8.15),
    ("C=C(F)C(=O)N1CCN(c2nc(OCCNC(=O)C(C)C)nc3c(F)c(-c4cccc5ccc(F)c(Cl)c45)ncc23)C[C@@H]1CC#N [Example 230]", 5.73),
    ("CN1C[C@H](F)C[C@H]1COc1nc(N2CCN(C(=O)/C=C/CF)[C@@H](CC#N)C2)c2cnc(-c3cncc4cccc(Cl)c34)c(F)c2n1 [Example 53]", 7.77),
    ("C=C(F)C(=O)N1CCN(c2nc(OC[C@@H]3C[C@@H](F)CN3C)nc3c(F)c(-c4cccc5cccc(C)c45)ncc23)C[C@@H]1CC#N [Example 14]", 6.92),
    ("COC/C=C/C(=O)N1CCN(c2nc(OC[C@@H]3CCCN3C)nc3c(F)c(-c4cccc5cccc(Cl)c45)ncc23)C[C@@H]1CC#N [Example 78]", 7.89),
    ("C#Cc1cccc2cccc(-c3ncc4c(N5CCN(C(=O)C=C)CC5)nc(OC[C@@H]5CCCN5C)nc4c3F)c12 [Example 213]", 7.21),
    ("C=C(F)C(=O)N1CCN(c2nc(OC[C@@H]3[C@@H]4C[C@@H]4CN3C)nc3c(F)c(-c4cccc5ccc(F)c(Cl)c45)ncc23)C[C@@H]1CC#N [Example 192]", 7.42),
    ("C=CC(=O)N1CC[C@@H]2[C@H]1CN2c1nc(OC(C)C)nc2c(F)c(-c3cccc4ccc(F)c(Cl)c34)ncc12 [Example 270]", 5.42),
]

(a) Cc1cccc2cccc(-c3ncc4c(N5CCN(C(=O)/C=C/CF)[C@@H](CC#N)C5)nc(OC[C@@H]5CCCN5C)nc4c3F)c12 [Example 12]
(b) C=C(F)C(=O)N1CCN(c2ncnc3c(F)c(-c4cccc5cccc(C)c45)ncc23)C[C@@H]1CC#N [Example 111]
// query For a and b , which recorded pIC50 is lower? Lab log: write the label of the selected item as the result.
// result b

###

- Study target: KRas G12C (Homo sapiens, UniProt P01116, G12C)
- Construct: NCI-H358 cells (ATCC CRL-5807) express KRas G12C
- Assay info: Inhibition of KRas G12C-dependent cell growth: Phospho-ERK in NCI-H358 cells
- Assay context: NCI-H358 cells expressing KRas G12C; Phospho-ERK (Thr202/Tyr204) normalized to GAPDH; 3 hours compound; 4 parameter fit
Measured endpoint: IC50 (nM)

Here's what some known entries look like.
# Compound, Study target, Readout units, Quantitative readout
rows = [
    ("C=CC(=O)N1C[C@H]2[C@@H]1CCN2c1ncnc2c(F)c(-c3cccc4ccc(F)c(Cl)c34)ncc12 [Example 232]", "KRas G12C (Homo sapiens, UniProt P01116, G12C)", "nM", 10000),
    ("C=C(F)C(=O)N1CCN(c2nc(OC[C@@H]3C[C@@H](F)CN3C)nc3c(F)c(-c4cccc5cccc(Cl)c45)ncc23)C[C@@H]1CC#N [Example 42]", "KRas G12C (Homo sapiens, UniProt P01116, G12C)", "nM", 18),
    ("C=CC(=O)N1CCN(c2ncnc3c(F)c(-c4cccc5ccc(F)c(Cl)c45)ncc23)C[C@@H]1CC(F)F [Example 183]", "KRas G12C (Homo sapiens, UniProt P01116, G12C)", "nM", 10000),
    ("CN1C[C@H](F)C[C@H]1COc1nc(N2CCN(C(=O)/C=C/CF)[C@@H](CC#N)C2)c2cnc(-c3cccc4cccc(Cl)c34)c(F)c2n1 [Example 43]", "KRas G12C (Homo sapiens, UniProt P01116, G12C)", "nM", 4),
]

(I) C=C(F)C(=O)N1CCN(c2nc(OC3CCN(C)CC3)nc3c(F)c(-c4cccc5cccc(Cl)c45)ncc23)C[C@@H]1CC#N [Example 70]
(II) C=C(F)C(=O)N1CCN(c2nc(OC[C@@H]3CCCN3C)nc3c(F)c(-c4cccc5ccc(Cl)c(Cl)c45)ncc23)C[C@@H]1CC#N [Example 147]
// query For I and II , which recorded IC50 is lower? Lab log: write the label of the selected item as the result.
// result II
